ASSAY TARGET: PI-3 kinase γ (Homo sapiens, UniProt P48736)
Sequence (P48736 whole entry): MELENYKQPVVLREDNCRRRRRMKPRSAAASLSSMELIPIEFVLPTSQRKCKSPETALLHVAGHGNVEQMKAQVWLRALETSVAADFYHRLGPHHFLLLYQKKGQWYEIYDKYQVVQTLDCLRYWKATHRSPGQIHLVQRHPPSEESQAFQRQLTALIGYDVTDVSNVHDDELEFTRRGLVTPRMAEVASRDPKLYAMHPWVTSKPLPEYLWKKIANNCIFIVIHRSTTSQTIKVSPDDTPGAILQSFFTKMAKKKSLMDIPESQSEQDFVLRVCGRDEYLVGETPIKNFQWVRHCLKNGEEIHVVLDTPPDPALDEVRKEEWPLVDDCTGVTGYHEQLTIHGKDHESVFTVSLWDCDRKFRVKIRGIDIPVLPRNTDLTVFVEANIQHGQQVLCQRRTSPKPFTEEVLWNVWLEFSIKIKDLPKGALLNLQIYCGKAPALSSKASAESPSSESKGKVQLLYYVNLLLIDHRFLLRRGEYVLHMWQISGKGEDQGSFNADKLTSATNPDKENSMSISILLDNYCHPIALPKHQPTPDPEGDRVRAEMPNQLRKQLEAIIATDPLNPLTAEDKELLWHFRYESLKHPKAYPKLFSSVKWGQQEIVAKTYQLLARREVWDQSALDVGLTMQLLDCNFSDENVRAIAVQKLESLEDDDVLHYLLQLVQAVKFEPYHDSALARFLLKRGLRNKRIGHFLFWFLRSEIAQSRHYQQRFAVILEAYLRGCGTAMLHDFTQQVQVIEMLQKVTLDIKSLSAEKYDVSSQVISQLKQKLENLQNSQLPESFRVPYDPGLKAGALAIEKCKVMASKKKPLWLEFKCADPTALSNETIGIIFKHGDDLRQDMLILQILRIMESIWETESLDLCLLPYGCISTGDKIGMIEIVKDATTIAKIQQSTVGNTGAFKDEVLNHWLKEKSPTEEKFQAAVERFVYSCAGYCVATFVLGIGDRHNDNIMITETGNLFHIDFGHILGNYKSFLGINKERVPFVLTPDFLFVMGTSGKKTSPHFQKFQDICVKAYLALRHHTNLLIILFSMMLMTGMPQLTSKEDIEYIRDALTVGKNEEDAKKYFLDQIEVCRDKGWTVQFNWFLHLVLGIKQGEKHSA
PROCEDURE SUMMARY: PI3Kγ inhibitory activity, PI3-kinase HTRF assay (Millipore)
Assay type: biochemical
MEASUREMENT SETUP: 0.5 h; compound 50 μM; read-out: Inhibition ratio % (50 μM)
Would you please tag the item met when its inhibition at 50 µM is 80% or above, and not met when it is below?

Prompt: Could you verify whether the entry CNC(=O)Nc1cn2nc(NC(C)=O)ccc2n1 [Compound I-101] shows inhibition at 50 µM of no less than 80%?
Response: not met

Prompt: Could you verify whether the entry COc1cccc(-c2ccc3nc(Nc4ccccn4)cn3n2)c1 [Compound I-220] shows inhibition at 50 µM of no less than 80%?
Response: not met

Prompt: Could you verify whether the entry CNC(=O)Nc1cn2nc(NC(=O)Nc3ccccc3)ccc2n1 [Compound I-5] shows inhibition at 50 µM of no less than 80%?
Response: not met

Prompt: Could you verify whether the entry CNC(=O)Nc1cn2nc(Nc3cccc(C(=O)NC)c3)ccc2n1 [Compound I-216] shows inhibition at 50 µM of no less than 80%?
Response: not met

Prompt: Could you verify whether the entry COc1cccc(-c2ccc3nc(NC(=O)NCC(=O)O)cn3n2)c1 [Compound I-120] shows inhibition at 50 µM of no less than 80%?
Response: met

Prompt: Could you verify whether the entry CNC(=O)Nc1cn2nc(Nc3ccc(OC)cc3)ccc2n1 [Compound I-54] shows inhibition at 50 µM of no less than 80%?
Response: met

Prompt: Could you verify whether the entry COc1cccc(-c2ccc3nc(NC(=O)NCCCl)cn3n2)c1 [Compound I-116] shows inhibition at 50 µM of no less than 80%?
Response: not met

Prompt: Could you verify whether the entry COc1cccc(-c2ccc3nc(NC(=O)NO)cn3n2)c1 [Compound I-274] shows inhibition at 50 µM of no less than 80%?
Response: met

Prompt: Could you verify whether the entry CNC(=O)Nc1cn2nc(C(=O)NC3CCCC3)ccc2n1 [Compound I-50] shows inhibition at 50 µM of no less than 80%?
Response: met

Prompt: Could you verify whether the entry CNC(=O)Nc1cn2nc(-c3ccc(Cl)cc3)ccc2n1 [Compound I-60] shows inhibition at 50 µM of no less than 80%?
Response: not met

Prompt: Could you verify whether the entry COc1cccc(-c2ccc3nc(NC(=O)NN4CCc5ccccc54)cn3n2)c1 [Compound I-269] shows inhibition at 50 µM of no less than 80%?
Response: not met

Prompt: Could you verify whether the entry COc1ccc(Nc2cn3nc(-c4cccc(OC)c4)ccc3n2)cc1 [Compound I-287] shows inhibition at 50 µM of no less than 80%?
Response: met

Prompt: Could you verify whether the entry COc1cccc(-c2ccc3nc(NC(=O)NCCC(=O)NC(C)(C)C)cn3n2)c1 [Compound I-272] shows inhibition at 50 µM of no less than 80%?
Response: not met

Prompt: Could you verify whether the entry CNC(=O)Nc1cn2nc(COc3cccnc3)ccc2n1 [Compound I-218] shows inhibition at 50 µM of no less than 80%?
Response: not met

Prompt: Could you verify whether the entry CNC(=O)Nc1cn2nc(-c3cncnc3)ccc2n1 [Compound I-145] shows inhibition at 50 µM of no less than 80%?
Response: not met
